B1: unnamed (parent)
chain 1: GEGQQHHLGGAKQAGDV
chain 2: GTDITNQLTNVTVGIDSGTTVYPHQAGYVKLNYGFSVPNSAVKGDTFKITVPKELNLNGVTSTAKVPPIMAGDQVLANGVIDSDGNVIYTFTDYVNTKDDVKATLTMPAYIDPENVKKTGNVTLATGIGSTTANKTVLVDYEKYGKFYNLSIKGTIDQIDKTNNTYRQTIYVNPSGDNVIAPVLTGNLKPNTDSNALIDQQNTSIKVYKVDNAADLSESYFVNPENFEDVTNSVNITFPNPNQYKVEFNTPDDQITTPYIVVVNGHIDPNSKGDLALRSTLYGYNSNIIWRSMSWDNEVAFNNGSGSGDGIDKPVVP

Variants of: B1
EXPERIMENT SUMMARY: solid-phase competition (inhibition) assay
PROTOCOL CONDITIONS: with partner chain of the complex shown;; read off a plot
Response key: True means response (Absorbance (405 nm)) >= 0.2; False means response (Absorbance (405 nm)) < 0.2.

Is the recorded value of response (Absorbance (405 nm)) equal to or greater than 0.2 for this variant? chain 1 GEGQAHHLGGAKQAGDV
True

Is the recorded value of response (Absorbance (405 nm)) equal to or greater than 0.2 for this variant? chain 1 GEGQQHHLGGAKQAGDA
False

Is the recorded value of response (Absorbance (405 nm)) equal to or greater than 0.2 for this variant? chain 1 GEGQQHHLGGAAQAGDV
True

Is the recorded value of response (Absorbance (405 nm)) equal to or greater than 0.2 for this variant? chain 1 GEGQQHHLGGSKQAGDV
False

Is the recorded value of response (Absorbance (405 nm)) equal to or greater than 0.2 for this variant? chain 1 GEGQQHHLGGAKQSGDV
True

Is the recorded value of response (Absorbance (405 nm)) equal to or greater than 0.2 for this variant? chain 1 GEGQQHHLAGAKQAGDV
True

Is the recorded value of response (Absorbance (405 nm)) equal to or greater than 0.2 for this variant? chain 1 AEGQQHHLGGAKQAGDV
True

Is the recorded value of response (Absorbance (405 nm)) equal to or greater than 0.2 for this variant? chain 1 GEGQQHHAGGAKQAGDV
False

Is the recorded value of response (Absorbance (405 nm)) equal to or greater than 0.2 for this variant? chain 1 GAGQQHHLGGAKQAGDV
True

Is the recorded value of response (Absorbance (405 nm)) equal to or greater than 0.2 for this variant? chain 1 GEGQQHALGGAKQAGDV
True

Is the recorded value of response (Absorbance (405 nm)) equal to or greater than 0.2 for this variant? chain 1 GEGQQHHLGAAKQAGDV
True

Is the recorded value of response (Absorbance (405 nm)) equal to or greater than 0.2 for this variant? chain 1 GEGQQAHLGGAKQAGDV
True

Is the recorded value of response (Absorbance (405 nm)) equal to or greater than 0.2 for this variant? chain 1 GEGQQHHLGGAKQAADV
True

Is the recorded value of response (Absorbance (405 nm)) equal to or greater than 0.2 for this variant? chain 1 GEGQQHHLGGAKAAGDV
True

Reference for the values: paper PMC2582960
